- tgt: HPK1 (Homo sapiens, UniProt Q92918)
- Construct: A HiBiT tag was introduced by CRISPR on the N terminus of HPK1 in Jurkat cells; host or cells: Jurkat cells (ATCC TIB-152), monoclonal line with CRISPR knock-in of HiBiT at the endogenous HPK1 locus
- Sequence (Q92918 whole entry): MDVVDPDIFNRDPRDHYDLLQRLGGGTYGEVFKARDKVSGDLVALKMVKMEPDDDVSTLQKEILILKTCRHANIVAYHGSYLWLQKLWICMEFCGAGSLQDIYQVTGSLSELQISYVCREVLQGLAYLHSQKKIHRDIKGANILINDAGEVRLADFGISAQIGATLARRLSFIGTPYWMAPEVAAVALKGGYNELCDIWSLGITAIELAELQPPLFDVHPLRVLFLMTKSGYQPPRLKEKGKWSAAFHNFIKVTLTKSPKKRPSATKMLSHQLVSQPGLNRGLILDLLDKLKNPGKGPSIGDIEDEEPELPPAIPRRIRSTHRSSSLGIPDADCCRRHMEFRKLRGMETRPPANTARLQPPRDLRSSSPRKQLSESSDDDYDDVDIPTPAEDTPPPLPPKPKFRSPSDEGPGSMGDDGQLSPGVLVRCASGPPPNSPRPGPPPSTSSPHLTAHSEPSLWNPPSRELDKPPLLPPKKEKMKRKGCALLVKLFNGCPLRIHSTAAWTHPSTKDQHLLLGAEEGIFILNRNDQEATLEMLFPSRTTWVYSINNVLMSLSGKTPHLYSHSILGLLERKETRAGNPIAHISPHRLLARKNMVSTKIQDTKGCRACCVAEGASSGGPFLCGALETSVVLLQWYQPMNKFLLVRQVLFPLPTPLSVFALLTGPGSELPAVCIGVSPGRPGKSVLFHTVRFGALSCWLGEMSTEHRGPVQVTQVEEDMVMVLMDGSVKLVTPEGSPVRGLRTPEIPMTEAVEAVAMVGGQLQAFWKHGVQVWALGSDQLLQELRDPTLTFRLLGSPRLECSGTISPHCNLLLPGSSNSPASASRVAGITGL
- assay_summary: HPK1 Cellular HiBit Degradation Assay
- Assay type: cell-based
- stated_conditions: Jurkat, HiBiT HPK1 Jurkat cells, 24 hrs; maximum degradation vs DMSO vehicle control; read-out: Dmax Category
property_measured: Dmax

Please review the entries below; each comes with its answer.
INSERT INTO assay_data (compound, property_measured, experimental_result) VALUES
  ('CC(C)n1cnc2cc(-c3ccc4c(c3)N([C@H]3C[C@@H](N5CCCCC5)C3)C(=O)C43CCN(C(=O)[C@H]4CCCN(C(=O)CC5CCN(c6ccc(C7CCC(=O)NC7=O)cn6)CC5)C4)CC3)nc(NC3CC3)c21 (mixture of isomers) [Example 231]', 'Dmax', '50 to 70%'),
  ('CC(C)n1cnc2cc(-c3ccc4c(c3)N([C@H]3C[C@@H](N5CCCCC5)C3)C(=O)C43CCN(C(=O)CN4CCN(C(=O)C5CCN(c6ccc(C7CCC(=O)NC7=O)cn6)CC5)CC4)CC3)nc(NC3CC3)c21 (mixture of isomers) [Example 243]', 'Dmax', '70 to 85%'),
  ('CC(C)n1cnc2cc(-c3ccc4c(c3)N([C@H]3C[C@@H](N5CCCCC5)C3)C(=O)C43CCN(C(=O)C4CCN(C(=O)[C@H]5CC[C@H](N(C)c6ccc(C7CCC(=O)NC7=O)cn6)CC5)CC4)CC3)nc(Nc3ccncc3F)c21 (mixture of isomers) [Example 132]', 'Dmax', '50 to 70%'),
  ('CC(C)n1cnc2cc(-c3ccc4c(c3)N([C@H]3C[C@@H](N5CCCCC5)C3)C(=O)C43CCN(C(=O)C4CCN(C(=O)[C@@H]5CCN(c6ccc(C7CCC(=O)NC7=O)cn6)C5)CC4)CC3)nc(Nc3ccccc3F)c21 (mixture of isomers) [Example 47]', 'Dmax', '50 to 70%'),
  ('CC(C)n1cnc2cc(-c3ccc4c(c3)N([C@H]3C[C@@H](N5CCCCC5)C3)C(=O)C43CCN(C(=O)C4CCN(C(=O)CN5CCN(c6ccc(C7CCC(=O)NC7=O)cn6)CC5)CC4)CC3)nc(NC3CC3)c21 (mixture of isomers) [Example 94]', 'Dmax', '50 to 70%');

Entry CC(C)n1cnc2cc(-c3ccc4c(c3)N([C@H]3C[C@@H](N5CCCCC5)C3)C(=O)C43CCN(C(=O)[C@H]4CC[C@H](C(=O)N5CCC(N(C)c6ccc(C7CCC(=O)NC7=O)cn6)CC5)CC4)CC3)nc(Nc3ccncc3F)c21 (mixture of isomers) [Example 139] under HPK1 (Homo sapiens, UniProt Q92918) had Dmax of 70 to 85%

For the compound CC(C)n1cnc2cc(-c3ccc4c(c3)N([C@H]3C[C@@H](N5CCCCC5)C3)C(=O)C43CCN(C(=O)CC4CCN(C(=O)[C@H]5CC[C@H](Oc6ccc(C7CCC(=O)NC7=O)cn6)CC5)CC4)CC3)nc(NC3CC3)c21 (stereo partly shown) [Example 161] , the measured Dmax on HPK1 (Homo sapiens, UniProt Q92918) was > 85%

Entry CC(C)n1cnc2cc(-c3ccc4c(c3)N([C@H]3C[C@@H](N5CCCCC5)C3)C(=O)C43CCN(C(=O)[C@@H]4CCN(C(=O)C5CCN(c6ccc(C7CCC(=O)NC7=O)cn6)CC5)C4)CC3)nc(NC3CC3)c21 (mixture of isomers) [Example 23] ; assay system HPK1 (Homo sapiens, UniProt Q92918); Dmax recorded at 70 to 85%

With HPK1 (Homo sapiens, UniProt Q92918) as the test system, CC(C)n1cnc2cc(-c3ccc4c(c3)N([C@H]3C[C@@H](N5CCCCC5)C3)C(=O)C43CCN(C(=O)[C@H]4CC[C@@H](C(=O)N5CCN(c6ccc7c(c6)C(=O)N(C6CCC(=O)NC6=O)C7=O)CC5)CC4)CC3)nc(Nc3ccccc3F)c21 (mixture of isomers) [Example 31] showed Dmax of 70 to 85%
